STUDY_SYSTEM: PRMT5 (Homo sapiens)
Construct: purchased Viva (custom protein)
Sequence (O14744 whole entry): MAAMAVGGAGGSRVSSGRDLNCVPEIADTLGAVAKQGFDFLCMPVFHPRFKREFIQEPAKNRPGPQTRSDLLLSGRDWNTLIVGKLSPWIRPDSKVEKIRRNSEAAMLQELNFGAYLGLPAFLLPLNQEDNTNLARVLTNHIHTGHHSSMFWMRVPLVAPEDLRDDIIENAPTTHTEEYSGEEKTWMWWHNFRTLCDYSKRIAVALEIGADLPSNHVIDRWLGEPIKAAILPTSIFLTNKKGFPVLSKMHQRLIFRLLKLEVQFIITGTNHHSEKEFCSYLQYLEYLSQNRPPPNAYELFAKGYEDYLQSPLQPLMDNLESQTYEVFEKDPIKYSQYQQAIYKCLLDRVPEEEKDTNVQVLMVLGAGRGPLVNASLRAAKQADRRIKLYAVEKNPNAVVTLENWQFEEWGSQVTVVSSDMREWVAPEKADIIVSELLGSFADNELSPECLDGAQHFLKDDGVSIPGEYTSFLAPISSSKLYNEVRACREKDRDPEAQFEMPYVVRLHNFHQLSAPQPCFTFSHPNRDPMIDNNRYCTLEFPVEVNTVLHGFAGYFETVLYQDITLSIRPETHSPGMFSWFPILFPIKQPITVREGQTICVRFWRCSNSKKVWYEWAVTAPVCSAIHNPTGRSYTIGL
Sequence (Q9BQA1 whole entry partner): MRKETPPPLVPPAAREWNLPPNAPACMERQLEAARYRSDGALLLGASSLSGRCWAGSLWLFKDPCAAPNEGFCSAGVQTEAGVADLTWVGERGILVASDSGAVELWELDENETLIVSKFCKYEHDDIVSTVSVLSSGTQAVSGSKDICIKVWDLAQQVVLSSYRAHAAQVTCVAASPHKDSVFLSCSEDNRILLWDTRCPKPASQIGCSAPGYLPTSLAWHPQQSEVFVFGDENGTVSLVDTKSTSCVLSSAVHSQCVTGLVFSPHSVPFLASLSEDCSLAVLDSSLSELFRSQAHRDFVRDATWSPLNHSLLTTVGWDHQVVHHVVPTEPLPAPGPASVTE
PROTOCOL_SUMMARY: PRMT5 biochemical IC50 assay with no cofactor
PARTICULARS: PRMT5, no cofactor; read-out: No Cofactor/rel IC50
MEASURED_METRIC: IC50

CCc1cc(NC(=O)C(=O)N2C[C@@H](C)CC[C@@H]2c2ccc(F)cc2)cnc1C : 50 to 500 nM
C[C@@H]1CC[C@@H](c2ccc3c(c2)CCC3)N(C(=O)C(=O)Nc2cncc(C(N)=O)c2)C1 (racemic) : 50 to 500 nM
C[C@@H]1CC[C@@H](c2ccc(Cl)c(F)c2)N(C(=O)C(=O)Nc2cncc(C(N)=O)c2)C1 (racemic) : 50 to 500 nM

// query Return IC50 measured with PRMT5 (Homo sapiens) given this molecule: C[C@@H]1CC[C@@H](c2ccc(S(N)(=O)=O)cc2)N(C(=O)C(=O)Nc2cncc(C(N)=O)c2)C1 (racemic) [Compound 651]
// result 50 to 500 nM

// query Moving on to the next molecule: Cc1cc(NC(=O)C(=O)N2C[C@@H](C)CC[C@@H]2c2ccc3c(c2)CCCN3)cnc1N (single isomer, unassigned)
// result > 500 nM

// query Moving on to the next molecule: C[C@@H]1CC[C@@H](C2CCC2)N(C(=O)C(=O)Nc2cncc(C(N)=O)c2)C1 (single isomer, unassigned)
// result > 500 nM

// query Moving on to the next molecule: CNc1nc2cc([C@H]3CC[C@H](C)CN3C(=O)C(=O)Nc3cncc(C(N)=O)c3)ccc2s1 (single isomer, unassigned)
// result > 500 nM

// query Moving on to the next molecule: COc1ncc(NC(=O)C(=O)N2C[C@@H](C)CC[C@@H]2c2ccc(C(N)=O)s2)cc1C(N)=O (single isomer, unassigned)
// result < 50 nM

// query Moving on to the next molecule: Cc1cc(NC(=O)C(=O)N2C[C@@H](C)CC[C@@H]2c2ccc3sc([C@H]4CCN(C)C(C)(C)C4)nc3c2)cnc1C (racemic) [Compound 1113]
// result < 50 nM

// query Moving on to the next molecule: CNS(=O)(=O)c1ccc([C@@H]2CC[C@@H](C)CN2C(=O)C(=O)Nc2cncc(C(N)=O)c2)cc1 (racemic) [Compound 652]
// result 50 to 500 nM

// query Moving on to the next molecule: Cc1cc(NC(=O)C(=O)N2C[C@H](C)CC[C@H]2c2ccc(-c3ccn[nH]3)cc2)cnc1N (single isomer, unassigned) [Compound 675]
// result > 500 nM

// query Moving on to the next molecule: C[C@H]1CC[C@H](c2cc(F)c(F)c(F)c2)N(C(=O)C(=O)Nc2cncc(C(N)=O)c2)C1 (single isomer, unassigned)
// result 50 to 500 nM

// query Moving on to the next molecule: Cc1cc(NC(=O)C(=O)N2C[C@H](C)CC[C@H]2c2ccc(C(F)(F)F)c(Cl)c2)cnc1N (single isomer, unassigned)
// result > 500 nM

// query Moving on to the next molecule: C[C@H]1CC[C@H](c2cccs2)N(C(=O)C(=O)Nc2cncc(C(N)=O)c2)C1 (single isomer, unassigned)
// result < 50 nM

// query Moving on to the next molecule: C[C@H]1CC[C@H](c2ccc3sc(CCN(C)C)nc3c2)N(C(=O)C(=O)Nc2cncc(C(N)=O)c2)C1 (single isomer, unassigned)
// result > 500 nM

// query Moving on to the next molecule: Cc1cc(NC(=O)C(=O)N2CCC(N(C)C)C[C@H]2c2ccccc2)cnc1N (mixture of isomers)
// result > 500 nM
